These data points were gathered from ChEMBL document CHEMBL3396992.

Listed below: Activity values for each entry.
Tested on: Rattus norvegicus
procedureSummary: Antiinflammatory activity against carrageenan-induced paw edema male Wistar albino rat at 50 mg/kg, ip administered 30 mins prior to carrageenan-challenge measured after 2 hrs relative to control
Assay type: functional
conditionParameters: route intraperitoneal
Provide only the numeric value, understood in %.

Please review the entries below; each comes with its answer.
INSERT INTO results (smilesinput, observedresult) VALUES
  ('COc1ccc(-c2nn(-c3ccccc3)cc2-c2nc(-c3ccc(F)cc3)c(C(=O)O)s2)cc1', 81.81),
  ('CCOC(=O)c1sc(-c2cn(-c3ccccc3)nc2-c2ccccc2)nc1-c1ccc(F)cc1', 81.81);

Which Activity reading was recorded for the compound "CCOC(=O)c1sc(-c2cn(-c3ccccc3)nc2-c2ccc(Cl)cc2)nc1-c1ccc(Cl)cc1" ?
77.68

What do you get for "CCOC(=O)c1sc(-c2cn(-c3ccccc3)nc2-c2ccc(F)cc2)nc1-c1ccc(Cl)cc1" ?
81.81

What do you get for "CCOC(=O)c1sc(-c2cn(-c3ccccc3)nc2-c2ccc(F)cc2)nc1-c1ccc(F)cc1" ?
79.33

What do you get for "CCOC(=O)c1sc(-c2cn(-c3ccccc3)nc2-c2ccc(OC)cc2)nc1-c1ccc(Cl)cc1" ?
68.59
